Where these numbers come from: PubChem BioAssay AID1008

Target: Bcl-2-related protein A1 (Homo sapiens)
Assay: Bfl-1/Bim complex disruptors – biochemical, multiplexed, bead-based flow cytometry, primary screen (AID 1008);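 note: 0% = wells without compound plus tracer and 100% = blocker peptide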
Details: Bim-Bfl-1 binding inhibition, at 10 µM, hits give high values
Screen size: about 190,000 compounds; about 240 (0.13%) were called active. This excerpt belongs to a sample that is enriched for actives.
endpoint: inhibition (%)
Numbers only, in %.

Example entries begin here.
substance_smiles=CCOc1cc(CNn2c(C)nnc2SCC(=O)NC(C)(C)C)ccc1OCC(=O)NC(C)(C)C numeric_value=-7
substance_smiles=Cc1c(NC(=O)/C=C/C(=O)O)cccc1[N+](=O)[O-] numeric_value=-15
substance_smiles=CN1CCN(S(=O)(=O)c2cccc(C(=O)N3CCc4ccccc43)c2)CC1 numeric_value=1
substance_smiles=COc1ccc(S(=O)(=O)N2CCCCCC2)cc1C(=O)OCC(=O)Nc1cc(C)on1 numeric_value=-1

We now examine a further molecule.
Query block: Reported inhibition, molecule O=C(O)CCS(=O)(=O)c1ccc(-c2ccccc2)cc1 : ____
Result block: 0

----------
Biological target: Bcl-2-related protein A1 (Homo sapiens)
Test: Bfl-1/Bim complex disruptors – biochemical, multiplexed, bead-based flow cytometry, primary screen (AID 1008);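 note: 0% = wells without compound plus tracer and 100% = blocker peptide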
Settings: Bim-Bfl-1 binding inhibition, at 10 µM, hits give high values
The whole screen tested about 190,000 compounds, of which about 240 (0.13%) were called active. Only a selection was taken, and actives are over-represented in it overall.
endpoint: inhibition (%)
Numbers only, in %.

compound=CC(=O)c1ccc(N2CCN(C(=O)c3ccc4nc[nH]c4c3)CC2)cc1 target_entity="Bcl-2-related protein A1 (Homo sapiens)" endpoint=inhibition numeric_value=0
compound=Cc1cccc2cc(CN(C(=O)c3cccs3)c3ccccc3)c(=O)[nH]c12 target_entity="Bcl-2-related protein A1 (Homo sapiens)" endpoint=inhibition numeric_value=-5
compound="CCOC(=O)C1(CC2CCCCO2)CCN(Cc2nc(-c3cccs3)oc2C)CC1 (stereo not given)" target_entity="Bcl-2-related protein A1 (Homo sapiens)" endpoint=inhibition numeric_value=-5
compound="Cc1cccc(C2c3[nH]c4ccccc4c3CCN2C(=O)c2cc(-c3cccn3C)n[nH]2)n1 (stereo not given)" target_entity="Bcl-2-related protein A1 (Homo sapiens)" endpoint=inhibition numeric_value=-4

Please examine the following record next.
Query block: Returns the measured inhibition for the input compound. Input: Cc1n[nH]c(=O)n1-c1ccc(C(C)C)cc1
Result block: -5

----------
Target: Bcl-2-related protein A1 (Homo sapiens)
Experiment: Bfl-1/Bim complex disruptors – biochemical, multiplexed, bead-based flow cytometry, primary screen (AID 1008);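 note: 0% = wells without compound plus tracer and 100% = blocker peptide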
Details: Bim-Bfl-1 binding inhibition, at 10 µM, hits give high values
Among all 190,000 compounds or so, about 240 (0.13%) were called active. Many of the other results were omitted from the sample, so actives are more common in it than they were.
endpoint: inhibition (%)
Numbers only, in %.

Below is a list of molecules. For each, state its recorded inhibition.
1. CN1CCN(c2nc(Nc3ccc(O)cc3)nc3ccccc23)CC1
2. O=c1[nH]n2c(=O)c3c([nH]c2c1N=Nc1ccccc1)CCC3
3. CSCCC(NC(=O)c1cc([N+](=O)[O-])cc([N+](=O)[O-])c1)c1nc2ccccc2[nH]1 (configuration not stated)
4. Cc1ccc(NC(=S)N(CCN2CCCCC2)Cc2ccco2)cc1C
5. Cc1csc(Nc2ccc(Cl)cc2)[n+]1-c1ccc(Cl)cc1
6. CN(c1ccc2nc3ccccc3c(=O)n2n1)C1CCCCC1
7. Nc1nc(-c2sc3nc4c(cc3c2N)CCCC4)nc(N2CCOCC2)n1

Result block:
-5
0
-16
-3
5
-3
-5

State the recorded inhibition for every item in the following list.
1. CCc1ccc(C(=O)OCC(=O)NCC(F)(F)F)cc1
2. Cc1cc([N+](=O)[O-])ccc1NC1CCCC1
3. Cc1ccc(CC(=O)Nc2ccc(OC(F)F)c(Cl)c2)cc1C
4. CN1CCN(NC(=O)c2ccc(S(=O)(=O)N3CCCCCC3)cc2)CC1

Result block:
1. -3
2. -7
3. -6
4. -2

Query block: Report inhibition for COc1cccc(C(O)Cc2nc3ccccc3n2C)c1OC (configuration not stated) please.
Result block: -3
